# Tested on: A673/TR/shEF
# Measurement protocol: cell viability (LOESS-normalised, relative to median of negative controls) (log2 ratio); higher = more viable cells (less compound effect), active = hit call of the paper (over 3 MAD below the median)
# Test parameters: 0.25 µM; library screen: screen1; EWS-FLI1 expression: high (no doxycycline); treatment time: 72 h
About 300 (9.4%) of roughly 3,200 compounds showed activity. Only a selection was taken, and actives are over-represented in it overall.
Please answer using one outcome listed in active, inactive

stdin: Please indicate how the test categorized `N/C(=N/c1nc2ccccc2o1)NC(=O)c1cccc(Br)c1` .
stdout: inactive

stdin: Can you look up the reported call for `CCCCC(=O)O[C@H]1CC[C@H]2[C@@H]3CCc4cc(O)ccc4[C@H]3CC[C@]12C` for me?
stdout: inactive

stdin: How did this test come out for `CC1=CC(=O)CC(C)(C)[C@@]1(O)/C=C/C(C)=C\C(=O)O` ?
stdout: inactive

stdin: # fetch the recorded call for `COc1ccc(/C=C/C(=O)O)cc1OC` here
stdout: inactive

stdin: Write down the call the test reported for this compound. Item: `C[C@]12CC[C@@H]3c4ccc(O)cc4CC[C@H]3[C@@H]1CC[C@@H]2OC(=O)CCC1CCCC1`
stdout: active

stdin: Assay outcome for `S=c1[nH]nc(COc2ccc(Cl)cc2Cl)n1-c1ccccc1` : what was it?
stdout: inactive

stdin: For `Cc1ccc(C(=O)NCc2ccc3c(c2)OCO3)cc1` , which call appears in the assay record?
stdout: inactive

stdin: What outcome does the record of this test show for `C=C/C(C)=C\C[C@@H]1[C@@]2(C)CCCC(C)(C)[C@@H]2CC[C@@]1(C)O` ?
stdout: inactive

stdin: Tell me the recorded outcome of this test for `CCOC(=O)c1c[nH]c2c(Cl)c(Cl)ccc2c1=O` .
stdout: inactive

stdin: How did this test come out for `Cc1ccc(C(C)C)cc2c(C)ccc1-2` ?
stdout: inactive

stdin: Which outcome was entered for the compound `CC1=C2[C@H]3OC(=O)[C@@H](C)[C@@H]3[C@@H](O)C[C@@]2(C)C=CC1=O` in this test?
stdout: inactive

----------
# Tested on: A673/TR/shEF
# Measurement protocol: cell viability (LOESS-normalised, relative to median of negative controls) (log2 ratio); higher = more viable cells (less compound effect), active = hit call of the paper (over 3 MAD below the median)
# Test parameters: 0.25 µM; library screen: screen2; EWS-FLI1 expression: high (no doxycycline); treatment time: 72 h
About 300 (9.4%) of roughly 3,200 compounds showed activity. The sample holds actives, similar compounds and a random draw of the others, so the mix is not that of the screen.
Please provide measured cell viability (log2) for the entries that follow.
Output: the number by itself.

Record `CC[C@H](CO)Nc1nc(NCc2ccccc2)c2ncn(C(C)C)c2n1` has A673/TR/shEF cell viability (log2) equal to 0.213

cell viability (log2) value, target or system A673/TR/shEF, for `O=c1[nH]cc(F)c(=O)[nH]1` : 0.172

Observed cell viability (log2) on A673/TR/shEF, entry CCC(=O)NCC1OC(n2cnc3c(NCc4ccccc4)ncnc32)C(O)C1O (stereo not drawn) , equals 0.0412

Reading of cell viability (log2) for `Nc1nc(=S)c2[nH]cnc2[nH]1` with A673/TR/shEF: 0.0679

Reading of cell viability (log2) for `Cn1cnc2c(NCc3ccccc3)nc(NCCO)nc21` with A673/TR/shEF: 0.272

The reported A673/TR/shEF cell viability (log2) of `CC(/C=C/C=C(\C)c1cc(C(C)(C)C)cc(C(C)(C)C)c1)=C\C(=O)O` is 0.134

Measured cell viability (log2) for this entry `COc1cccc(NC(=O)/C=C/c2ccc(Cl)cc2)c1` on A673/TR/shEF: 0.303

Measured on A673/TR/shEF, `N#CC(C#N)=C(N)/C(C#N)=C/c1ccc(O)cc1` has a documented cell viability (log2) of 0.137

Simply: `Cc1ccc(S(=O)(=O)N[C@@H](Cc2ccccc2)C(=O)CCl)cc1` , A673/TR/shEF, cell viability (log2) = 0.00163

The molecule `O=C(N[C@@H](Cc1ccccc1)C(=O)CCl)OCc1ccccc1` , when measured on A673/TR/shEF, yielded cell viability (log2) of 0.163

Form field, cell viability (log2) with A673/TR/shEF, item `CC(C)[C@H](NC(=O)OCc1ccccc1)C(=O)N[C@H](C=O)Cc1ccccc1` : 0.0586

cell viability (log2) value, target or system A673/TR/shEF, for Nc1nc(Cl)nc2c1ncn2[C@@H]1O[C@H](COP(=O)(O)OP(=O)(O)OP(=O)(O)O)[C@H](O)C1O (stereo partly drawn) : 0.146

NCCNC(=O)Cc1ccc(NC(=O)Cc2ccc(Nc3ncnc4c3ncn4C3OC(CO)C(O)C3O)cc2)cc1 (stereo not drawn) tested on A673/TR/shEF gave cell viability (log2): 0.211

Log: A673/TR/shEF, molecule CO[C@H]1C=CC2CCN3CCC4=C(CC(=O)OC4)[C@]23C1 (stereo partly drawn) , cell viability (log2) = 0.124

Recorded cell viability (log2) for `Cc1cc(N)c2ccccc2[n+]1CCCCCCCCCC[n+]1c(C)cc(N)c2ccccc21` on A673/TR/shEF was 0.122

Log: A673/TR/shEF, molecule `S=c1nc[nH]c2nc[nH]c12` , cell viability (log2) = 0.161

cell viability (log2) of `O=C1c2c(O)ccc(O)c2C(=O)c2c(NCCNCCO)ccc(NCCNCCO)c21` , assay on A673/TR/shEF, is -2.25

cell viability (log2) of `c1ccc([C@H]2CN3CCSC3=N2)cc1` , assay on A673/TR/shEF, is 0.069

Observed cell viability (log2) on A673/TR/shEF, entry `COc1c(C)c2c(c(O)c1C/C=C(\C)CCC(=O)O)C(=O)OC2` , equals 0.0974

cell viability (log2) of `COC1=C(OC)C(=O)c2ccccc2C1=O` , assay on A673/TR/shEF, is 0.153

Recorded cell viability (log2) for `COc1cc(C(=O)OCCCN2CCCN(CCCOC(=O)c3cc(OC)c(OC)c(OC)c3)CC2)cc(OC)c1OC` on A673/TR/shEF was 0.105

The value of cell viability (log2) recorded for `Brc1ccc([C@H]2CN3CCSC3=N2)cc1` when tested on A673/TR/shEF reads -0.0213

Result for `N#CC(C#N)=C(N)/C(C#N)=C/c1cc(O)c(O)c(O)c1` , tested on A673/TR/shEF, cell viability (log2): 0.21

----------
# Tested on: A673/TR/shEF
# Measurement protocol: cell viability (LOESS-normalised, relative to median of negative controls) (log2 ratio); higher = more viable cells (less compound effect), active = hit call of the paper (over 3 MAD below the median)
# Test parameters: 2.5 µM; library screen: screen1; EWS-FLI1 expression: low (doxycycline-induced shRNA knockdown); treatment time: 72 h
Out of some 3,200 compounds screened, about 300 (9.4%) showed activity. The entries come from a sample that favours actives as a whole.
Exercise: state measured cell viability (log2) for each of the molecules provided.
# output: bare number, no unit

Lookup result for `COc1ccc2c(c1OC)C(=O)O[C@H]2[C@@H]1c2ccccc2CCN1C` ; measured cell viability (log2): -0.0658

The value of cell viability (log2) measured for the molecule `CC1(C)O[C@H]2[C@H](O)C[C@](O)(C(N)=O)C[C@H]2O1` turned out to be 0.0924

// recorded cell viability (log2) for `COc1cc(CN2CCN(Cc3ccccc3Br)CC2)cc(OC)c1OC` : -0.0338

The measured cell viability (log2) associated with `Cc1cc(=O)c2c(o1)-c1c(cc(O)c(O)c1C(=O)O)OC2` reads 0.0692

response.value for COc1ccc(C2CC(=O)c3c(OC)cc(O)cc3O2)cc1 (configuration not stated) (field: cell viability (log2)) = 0.0561

Reported cell viability (log2) for `CN1CCN(c2nc3ccccn3c(=O)c2/C=C2\SC(=S)N(C)C2=O)CC1` was -0.00837

Entry C[C@]12CCC3c4ccc(OS(=O)(=O)O)cc4CCC3C1CC[C@H]2O (some centres not stated) ; cell viability (log2) = 0.092

// cell viability (log2) lookup, molecule = `COC1=CC(=O)C(O)=C/C1=C/C=C/c1ccccc1` , result: 0.125

The recorded cell viability (log2) for CCC(C)C(NC)C(=O)O (configuration not stated) is -0.0496

In plain terms, `CCN(CC)CC(=O)Nc1c(C)cccc1C` has a documented cell viability (log2) of 0.131

Record summary for `Cc1nnc(SCC(=O)N2c3cc(C)c(C)cc3-c3c(ssc3=S)C2(C)C)s1` : reported cell viability (log2) = 0.371

Entry `O=C(O)c1ccc(OC2CSC2)cc1` , cell viability (log2) reported as 0.0727

Every entry's value here was drawn from the supplement of paper PMC6089552.
